Parameter: pIC50. Scope: all listed entries.
Tested on: HT-29
ASSAY_NAME: Cytotoxicity against human HT-29 cells assessed as cell growth inhibition measured after 72 hrs by MTT assay
Type: functional, cell-based
CONDITION_SUMMARY: HT-29, 72 h
pIC50: −log10 of the molar value.
ENDPOINT: pIC50

{"TEST_SMILES": "CC(=O)O[C@H]1CC[C@]2(C)[C@H]3CC[C@]4(C)COC(=O)C[C@H]4[C@@H]3C[C@@H](O)[C@@]2(Cl)C1", "MEAS_VALUE": 4.14}
{"TEST_SMILES": "CC(=O)O[C@H]1CC[C@]2(C)[C@H]3CC[C@]4(C)COC(=O)C[C@H]4[C@@H]3C[C@H](Br)[C@]2(O)C1", "MEAS_VALUE": "< 4.00"}
{"TEST_SMILES": "CC(=O)O[C@H]1CC[C@]2(C)[C@H]3CC[C@]4(C)COC(=O)C[C@H]4[C@@H]3C[C@@H](OC(C)=O)[C@@]2(O)C1", "MEAS_VALUE": "< 4.00"}

* * *

Test system: PC-3
ASSAY_NAME: Cytotoxicity against human PC-3 cells assessed as cell growth inhibition measured after 72 hrs by MTT assay
Format: functional, cell-based
CONDITION_SUMMARY: PC-3, 72 h
pIC50: −log10 of the molar value.
Parameter: pIC50. Scope: all listed entries.

{"TEST_SMILES": "CC(=O)O[C@H]1CC[C@]2(C)[C@H]3CC[C@]4(C)COC(=O)C[C@H]4[C@@H]3CC(=O)[C@@]2(O)C1", "COMPARATIVE_SIGN": "<", "pIC50": 4.00}
{"TEST_SMILES": "CO[C@@H]1C[C@H]2[C@@H]3CC(=O)OC[C@@]3(C)CC[C@@H]2[C@@]2(C)CC[C@H](O)C[C@]12O", "COMPARATIVE_SIGN": "=", "pIC50": 4.97}
{"TEST_SMILES": "CC(=O)O[C@H]1CC[C@]2(C)[C@H]3CC[C@]4(C)COC(=O)C[C@H]4[C@@H]3C[C@@H](O)[C@@]2(O)C1", "COMPARATIVE_SIGN": "<", "pIC50": 4.00}
{"TEST_SMILES": "C[C@]12CCC(=O)C(O)=C1CC[C@@H]1[C@@H]2CC[C@]2(C)C(=O)CC[C@@H]12", "COMPARATIVE_SIGN": "=", "pIC50": 4.58}
{"TEST_SMILES": "CC(=O)O[C@H]1CC[C@]2(C)[C@H]3CC[C@]4(C)COC(=O)C[C@H]4[C@@H]3C[C@@H](O)[C@@]2(Cl)C1", "COMPARATIVE_SIGN": "<", "pIC50": 4.00}
{"TEST_SMILES": "COc1cccc2c1C(=O)c1c(O)c3c(c(O)c1C2=O)C[C@@](O)(C(=O)CO)C[C@@H]3O[C@H]1C[C@H](N)[C@H](O)[C@H](C)O1", "COMPARATIVE_SIGN": "=", "pIC50": 4.07}
{"TEST_SMILES": "CC(=O)O[C@H]1CC[C@]2(C)[C@H]3CC[C@]4(C)COC(=O)C[C@H]4[C@@H]3C[C@H](Br)[C@]2(O)C1", "COMPARATIVE_SIGN": "<", "pIC50": 4.00}
